molecular target: MET (human) (Homo sapiens, UniProt P08581); assay: MET (human) AlphaScreen kinase assay, Km of ATP; assay type: biochemical; details: AlphaScreen, Km of ATP; read-out: Met biochemical IC50
Sequence (P08581 25-1390): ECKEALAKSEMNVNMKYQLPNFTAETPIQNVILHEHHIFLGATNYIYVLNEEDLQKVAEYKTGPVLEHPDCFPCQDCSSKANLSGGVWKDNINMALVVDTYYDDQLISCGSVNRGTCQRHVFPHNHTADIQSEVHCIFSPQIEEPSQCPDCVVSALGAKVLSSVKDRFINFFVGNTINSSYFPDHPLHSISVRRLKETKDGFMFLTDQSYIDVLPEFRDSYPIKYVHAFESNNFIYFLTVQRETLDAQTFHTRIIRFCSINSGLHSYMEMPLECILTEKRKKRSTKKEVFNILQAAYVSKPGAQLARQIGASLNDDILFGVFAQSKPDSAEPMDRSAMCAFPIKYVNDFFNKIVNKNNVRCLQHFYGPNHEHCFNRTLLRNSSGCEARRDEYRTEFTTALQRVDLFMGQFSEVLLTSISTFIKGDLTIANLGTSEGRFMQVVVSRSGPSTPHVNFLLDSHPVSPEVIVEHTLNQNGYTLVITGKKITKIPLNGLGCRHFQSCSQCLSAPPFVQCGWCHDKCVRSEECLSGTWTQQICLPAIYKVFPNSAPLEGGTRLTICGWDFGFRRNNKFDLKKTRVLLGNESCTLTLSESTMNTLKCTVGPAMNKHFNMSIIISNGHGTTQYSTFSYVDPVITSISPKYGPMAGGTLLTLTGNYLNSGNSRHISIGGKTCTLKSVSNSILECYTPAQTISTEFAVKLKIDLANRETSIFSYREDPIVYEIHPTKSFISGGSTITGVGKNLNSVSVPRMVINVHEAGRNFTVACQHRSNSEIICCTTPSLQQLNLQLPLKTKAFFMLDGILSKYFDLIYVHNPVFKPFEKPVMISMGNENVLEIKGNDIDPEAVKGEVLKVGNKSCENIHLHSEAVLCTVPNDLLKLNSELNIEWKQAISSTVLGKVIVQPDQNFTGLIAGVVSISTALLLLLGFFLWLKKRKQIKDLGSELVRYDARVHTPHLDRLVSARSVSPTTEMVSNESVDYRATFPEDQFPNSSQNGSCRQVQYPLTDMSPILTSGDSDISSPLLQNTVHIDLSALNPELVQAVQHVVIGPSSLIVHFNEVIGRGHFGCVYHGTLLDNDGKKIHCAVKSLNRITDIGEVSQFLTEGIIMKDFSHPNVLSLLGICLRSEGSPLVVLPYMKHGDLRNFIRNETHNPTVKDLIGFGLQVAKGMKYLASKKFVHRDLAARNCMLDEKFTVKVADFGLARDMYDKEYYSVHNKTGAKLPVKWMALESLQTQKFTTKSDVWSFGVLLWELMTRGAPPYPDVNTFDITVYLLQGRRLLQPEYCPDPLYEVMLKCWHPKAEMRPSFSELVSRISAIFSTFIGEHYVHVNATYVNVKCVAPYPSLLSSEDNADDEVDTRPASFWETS
pIC50: −log10 of the molar value.
# pIC50 per entry

Query: Name the reported pIC50 value associated with the compound CC(Oc1c(N)ncc2c(-c3cnn(C4CCNCC4)c3)coc12)c1c(Cl)c(F)cc(OCCCN(C)C)c1Cl (stereo not drawn) [Example 156]
Response: > 6.30

Query: Now give it for C[C@@H](Oc1c(N)ncc2c(C3=CCN(CC(=O)N(C)C)CC3)coc12)c1c(Cl)ccc(F)c1Cl [Example 200] too.
Response: > 6.30

Query: // query: C[C@@H](Oc1c(N)ncc2c(-c3cc(C(=O)NC(C)(C)C)cs3)coc12)c1c(Cl)ccc(F)c1Cl [Example 331]
Response: 5.30 to 6.30

Query: Then this compound: CNS(=O)(=O)c1cccc(-c2coc3c(O[C@H](C)c4c(Cl)ccc(F)c4Cl)c(N)ncc23)c1 [Example 83]
Response: 5.30 to 6.30

Query: Then this compound: C[C@@H](Oc1c(N)ncc2c(C(=O)NC3CCN(C(=O)OC(C)(C)C)CC3)coc12)c1c(Cl)ccc(F)c1Cl [Example 181]
Response: 5.30 to 6.30

Query: Okay, and C[C@@H](Oc1c(N)ncc2c(-c3cnn(C4CCNCC4)c3)coc12)c1nnc2ccc(-c3cnn(C)c3)nn12 [Example 469] ?
Response: > 6.30

Query: Next entry: Nc1ncc2c(-c3cnn(C4CCNCC4)c3)coc2c1O[C@H]1CCCC[C@H]1c1ccccc1 [Example 409]
Response: 5.30 to 6.30

Query: What do you get for CCOC(=O)N1CC=C(c2coc3c(O[C@H](C)c4c(Cl)ccc(F)c4Cl)c(N)ncc23)CC1 [Example 51] ?
Response: 5.30 to 6.30

----------
molecular target: MET (human) (Homo sapiens); assay: MET (human) AlphaScreen kinase assay, Km of ATP; assay type: biochemical; conditions: AlphaScreen, Km of ATP; read-out: Met biochemical IC50
REPORTED ENDPOINT: IC50

Worked cases, IC50 given:
- COc1cccc(CC(C)Oc2c(N)ncc3c(-c4cnn(C5CCNCC5)c4)coc23)c1 (stereo not drawn): < 500 nM
- CN/C(=N/C#N)N1CC=C(c2coc3c(O[C@H](C)c4c(Cl)ccc(F)c4Cl)c(N)ncc23)CC1: 500 to 5000 nM

Query: # value lookup — system MET (human) (Homo sapiens), readout IC50, item `C[C@@H](Oc1c(N)ncc2c(C3=CCSCC3)coc12)c1c(Cl)ccc(F)c1Cl`
Response: < 500 nM

Query: Lookup `C[C@@H](Oc1c(N)ncc2c(-c3ccc(C(=O)N4CCCN(C)CC4)cc3)coc12)c1c(Cl)ccc(F)c1Cl`
Response: < 500 nM

Query: Try `C[C@H](N)C(=O)N1CC=C(c2coc3c(O[C@H](C)c4c(Cl)ccc(F)c4Cl)c(N)ncc23)CC1` next.
Response: < 500 nM

Query: Could you do the same for C[C@@H](Oc1c(N)ncc2c(C3=CC(N)CCC3)coc12)c1c(Cl)ccc(F)c1Cl (stereo partly drawn) , please?
Response: < 500 nM

Query: Next compound: `Nc1ncc2c(-c3cnn(C4CCNCC4)c3)coc2c1OC/C=C/c1c(Cl)ccc(F)c1Cl`
Response: < 500 nM

Query: Next compound up: `C[C@@H](Oc1c(N)ncc2c(-c3ccc(CN4CCC(O)CC4)s3)coc12)c1c(Cl)ccc(F)c1Cl`
Response: < 500 nM

----------
Recorded pIC50 values for a group of compounds are listed next.
molecular target: RON (human) (Homo sapiens, UniProt Q04912); test: RON (human) AlphaScreen kinase assay, Km of ATP; format: biochemical; conditions: AlphaScreen, Km of ATP; read-out: RON biochemical IC50
Sequence (Q04912 25-1400): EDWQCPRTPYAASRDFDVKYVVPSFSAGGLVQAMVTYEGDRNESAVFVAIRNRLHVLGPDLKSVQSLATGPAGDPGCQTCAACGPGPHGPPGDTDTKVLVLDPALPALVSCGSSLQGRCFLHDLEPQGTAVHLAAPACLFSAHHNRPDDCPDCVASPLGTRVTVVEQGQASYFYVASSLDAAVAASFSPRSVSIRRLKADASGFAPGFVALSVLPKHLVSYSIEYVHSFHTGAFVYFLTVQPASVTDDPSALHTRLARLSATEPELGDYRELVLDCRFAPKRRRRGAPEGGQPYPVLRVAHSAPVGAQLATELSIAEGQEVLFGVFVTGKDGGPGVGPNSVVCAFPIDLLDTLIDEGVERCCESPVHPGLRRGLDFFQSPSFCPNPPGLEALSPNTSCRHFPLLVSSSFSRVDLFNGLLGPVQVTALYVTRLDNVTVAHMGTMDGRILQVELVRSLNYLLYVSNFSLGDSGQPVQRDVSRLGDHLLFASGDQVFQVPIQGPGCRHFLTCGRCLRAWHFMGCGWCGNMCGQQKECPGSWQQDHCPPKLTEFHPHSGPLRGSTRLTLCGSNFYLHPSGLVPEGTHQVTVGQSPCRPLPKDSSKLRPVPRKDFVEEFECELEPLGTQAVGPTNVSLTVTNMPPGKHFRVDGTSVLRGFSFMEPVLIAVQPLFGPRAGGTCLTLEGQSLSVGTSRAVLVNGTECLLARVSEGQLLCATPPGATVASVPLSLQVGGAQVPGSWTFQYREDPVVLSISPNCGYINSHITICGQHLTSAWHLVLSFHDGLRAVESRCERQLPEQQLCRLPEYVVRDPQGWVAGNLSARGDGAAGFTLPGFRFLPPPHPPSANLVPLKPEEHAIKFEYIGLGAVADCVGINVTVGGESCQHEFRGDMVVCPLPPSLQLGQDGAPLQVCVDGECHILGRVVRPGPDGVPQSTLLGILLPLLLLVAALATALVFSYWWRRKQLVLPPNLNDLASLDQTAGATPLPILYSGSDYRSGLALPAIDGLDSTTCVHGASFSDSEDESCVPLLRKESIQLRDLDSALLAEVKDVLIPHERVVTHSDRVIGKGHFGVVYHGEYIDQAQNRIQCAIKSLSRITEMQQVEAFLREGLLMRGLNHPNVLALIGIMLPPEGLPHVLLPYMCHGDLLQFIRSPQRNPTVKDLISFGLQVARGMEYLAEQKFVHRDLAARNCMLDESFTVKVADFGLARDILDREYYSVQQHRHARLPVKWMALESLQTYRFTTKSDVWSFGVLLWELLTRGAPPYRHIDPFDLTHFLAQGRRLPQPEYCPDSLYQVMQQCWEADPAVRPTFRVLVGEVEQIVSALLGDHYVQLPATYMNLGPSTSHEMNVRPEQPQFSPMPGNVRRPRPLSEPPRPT
pIC50: −log10 of the molar value.

Query: What pIC50 value was documented for this compound, C[C@@H](Oc1c(N)ncc2c(C3=CCN(/C(N)=N\C#N)CC3)coc12)c1c(Cl)ccc(F)c1Cl [Example 197] ?
Response: 5.30 to 6.30

Query: One more compound: CC(O)C(=O)N1CC=C(c2coc3c(O[C@H](C)c4c(Cl)ccc(F)c4Cl)c(N)ncc23)CC1 (stereo partly shown) [Example 229]
Response: > 6.30

Query: Item: CC(Oc1c(N)ncc2c(-c3cnn(C4CCNCC4)c3)coc12)c1nc2ccccc2s1 (stereo not shown) [Example 404]
Response: 5.30 to 6.30

Query: Check COc1ccccc1CC(C)Oc1c(N)ncc2c(-c3cnn(C4CCNCC4)c3)coc12 (stereo not shown) [Example 406] too.
Response: > 6.30

----------
Recorded measurements of pIC50, one per entry
target: UniProt Q04912; test: RON (human) AlphaScreen kinase assay, Km of ATP; format: biochemical; conditions: AlphaScreen, Km of ATP; read-out: RON biochemical IC50
pIC50: −log10 of the molar value.

Worked examples, 3 compounds total:
• C[C@@H](Oc1c(N)ncc2c(C3=CCN(C(=O)[C@H]4CCCCN4)CC3)coc12)c1c(Cl)ccc(F)c1Cl = > 6.30
• C[C@@H](Oc1c(N)ncc2c(-c3ccc(CN4CCCCC4)s3)coc12)c1c(Cl)ccc(F)c1Cl = > 6.30
• C[C@@H](Oc1c(N)ncc2c(-c3cccc(C(=O)N(C)C)c3)coc12)c1c(Cl)ccc(F)c1Cl = 5.30 to 6.30

Query: Value lookup for pIC50; key = `C[C@@H](Oc1c(N)ncc2c(CO)coc12)c1c(Cl)ccc(F)c1Cl`
Response: 5.30 to 6.30

Query: Lookup `Nc1ncc2ccoc2c1OCc1ccc(NC(=O)c2cccn(-c3ccc(F)cc3)c2=O)cc1`
Response: < 4.70

Query: Next compound up: `C[C@@H](Oc1c(N)ncc2c(-c3ccc(C(=O)N4CCC(O)CC4)cc3)coc12)c1c(Cl)ccc(F)c1Cl`
Response: 5.30 to 6.30

----------
Molecular target: UniProtKB Q04912
Assay: RON (human) AlphaScreen kinase assay, Km of ATP
Type: biochemical
Details: AlphaScreen, Km of ATP; read-out: RON biochemical IC50
Description: Someone skilled in the art will appreciate that a variety of assay formats may be used to determine the activity of the compounds of this invention. For example, AlphaScreen (Amplified Luminescent Proximity Homogeneous Assay) technology was used with the kinases described below. […] Desired compound is added in a final concentration of 1% DMSO with control being vehicle of DMSO alone. […] The plates, incubated for 1 h, are read on an AlphaQuest plate reader.
pIC50: −log10 of the molar value.
REPORTED ENDPOINT: pIC50

// below: answered compounds
* C[C@@H](Oc1c(N)ncc2c(C3=CCN(C(=O)[C@]4(C)CCCN4)CC3)coc12)c1c(Cl)ccc(F)c1Cl | > 6.30
* C[C@@H](Oc1c(N)ncc2c(-c3csc(CN4CCC4)c3)coc12)c1c(Cl)ccc(F)c1Cl | > 6.30
* CC(Cc1cccc(Cl)c1)Oc1c(N)ncc2c(-c3cnn(C4CCNCC4)c3)coc12 (stereo not drawn) | > 6.30
* COc1cc(Cl)cc(Cl)c1C(C)Oc1c(N)ncc2c(-c3cnn(C4CCNCC4)c3)coc12 (stereo not drawn) | 5.30 to 6.30
* C[C@@H]1CN[C@@H](C)CN1C(=O)c1ccc(-c2coc3c(O[C@H](C)c4c(Cl)ccc(F)c4Cl)c(N)ncc23)cc1 | 5.30 to 6.30

Query: I would be grateful if you could share the reported pIC50 for `C[C@@H](Oc1c(N)ncc2c(-c3cc(C(=O)N(C)C)cs3)coc12)c1c(Cl)ccc(F)c1Cl` .
Response: 5.30 to 6.30

Query: How about this compound: C[C@@H](Oc1c(N)ncc2c(C3=CCN(C(=O)C(N)C(F)(F)F)CC3)coc12)c1c(Cl)ccc(F)c1Cl (stereo partly drawn)
Response: 5.30 to 6.30

Query: Let us now turn to `C[C@@H](Oc1c(N)ncc2c(-c3ccc(C(=O)N4CCCN(C)CC4)cc3)coc12)c1c(Cl)ccc(F)c1Cl`
Response: > 6.30

Query: Lookup `C[C@@H](Oc1c(N)ncc2c(C3CCN(C(N)=O)CC3)coc12)c1c(Cl)ccc(F)c1Cl`
Response: 5.30 to 6.30

Query: Try this compound too: CC(Oc1c(N)ncc2c(-c3cnn(C4CCNCC4)c3)coc12)c1c(F)cccc1Cl (stereo not drawn)
Response: 5.30 to 6.30

Query: Would you kindly repeat that for `C[C@@H](Oc1c(N)ncc2c(-c3ccc(C#N)nc3)coc12)c1c(Cl)ccc(F)c1Cl` ?
Response: 4.70 to 5.30

Query: Continue with CCN1CC2CC1CN2C(=O)N1CC=C(c2coc3c(O[C@H](C)c4c(Cl)ccc(F)c4Cl)c(N)ncc23)CC1 (stereo partly drawn)
Response: > 6.30

----------
target: RON (human) (Homo sapiens); experiment: RON (human) AlphaScreen kinase assay, Km of ATP; format: biochemical; settings: AlphaScreen, Km of ATP; read-out: RON biochemical IC50
Entries and their measured IC50 follow.

Look over these answered cases.
- C[C@@H](Oc1c(N)ncc2c(C3=CCN(C(=O)Nc4ccccc4Cl)CC3)coc12)c1c(Cl)ccc(F)c1Cl: 500 to 5000 nM
- CC(=O)N1CC=C(c2coc3c(O[C@H](C)c4c(Cl)ccc(F)c4Cl)c(N)ncc23)CC1: 500 to 5000 nM
- C[C@@H](Oc1c(N)ncc2c(-c3cccc(CO)c3)coc12)c1c(Cl)ccc(F)c1Cl: 500 to 5000 nM

Query: Fill in: IC50 of `C[C@@H](Oc1c(N)ncc2c(-c3ccc(N4CCN(C)CC4)nc3)coc12)c1c(Cl)ccc(F)c1Cl` is ___
Response: < 500 nM

Value source: patent US8022206B2
